- Read-out: E-selectin (Homo sapiens) (UniProt P16581)
- Sequence (P16581 whole entry, looked up): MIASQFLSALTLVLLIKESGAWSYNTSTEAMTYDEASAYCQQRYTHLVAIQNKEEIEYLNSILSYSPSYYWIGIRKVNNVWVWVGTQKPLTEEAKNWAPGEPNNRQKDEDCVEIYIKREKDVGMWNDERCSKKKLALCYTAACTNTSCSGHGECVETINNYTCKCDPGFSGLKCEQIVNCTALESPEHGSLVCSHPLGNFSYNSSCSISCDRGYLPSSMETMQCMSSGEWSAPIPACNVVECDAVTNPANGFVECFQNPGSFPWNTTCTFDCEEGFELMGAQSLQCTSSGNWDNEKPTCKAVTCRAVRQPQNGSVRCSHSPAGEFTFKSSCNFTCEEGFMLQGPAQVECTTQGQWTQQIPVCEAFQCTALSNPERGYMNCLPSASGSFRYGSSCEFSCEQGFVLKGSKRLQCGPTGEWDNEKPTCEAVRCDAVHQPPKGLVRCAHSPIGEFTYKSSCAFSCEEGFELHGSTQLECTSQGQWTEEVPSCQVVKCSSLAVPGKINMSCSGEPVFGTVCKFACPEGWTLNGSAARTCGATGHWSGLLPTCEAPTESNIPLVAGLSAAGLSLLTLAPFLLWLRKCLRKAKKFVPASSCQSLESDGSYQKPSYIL
- ASSAY EXPLANATION: BSK_SAg_Eselectin: BioMAP Diversity Plus: SAg Assay for Eselectin Biomarker Activity (AID 2283091)
- REPORTED CONDITIONS: primary human HUVEC with PBMC; actives raise or lower the signal
Activity calls are given as the source filed them. Rule for the calls: active = hit-call score of the fitted dose curve at least 0.9, where 1 is the maximum; inactive = score below 0.9.
Labels: 1 for active, -1 for inactive

CC(C)N(C(=O)SCC(Cl)=C(Cl)Cl)C(C)C :: 1
COP(=O)(OC)C(O)C(Cl)(Cl)Cl (stereo not drawn) :: 1
CNC(=O)ON=C(C)SC :: -1
COP(=O)(OC)SCn1c(=O)oc2cc(Cl)cnc21 :: 1
CCOC(=O)CC(SP(=O)(OC)OC)C(=O)OCC (stereo not drawn) :: -1
CC(C)=CC1C(C(=O)OCN2C(=O)C3=C(CCCC3)C2=O)C1(C)C (stereo not drawn) :: 1
CSc1nc(NC(C)C)nc(NC(C)C)n1 :: -1
CCc1cccc(C)c1N(C(=O)CCl)C(C)COC (stereo not drawn) :: -1
CN(C)C(=O)Nc1cccc(C(F)(F)F)c1 :: -1
CCc1cccc(CC)c1N(COC)C(=O)CCl :: 1
CCCCOC(=O)c1ccccc1C(=O)O :: -1
CCCOCC(=Nc1ccc(Cl)cc1C(F)(F)F)n1ccnc1 :: 1
CN1COCN(Cc2cnc(Cl)s2)C1=N[N+](=O)[O-] :: -1

###

- Read-out: Cytochrome P450 7A1 (Homo sapiens) (UniProt P22680)
- ASSAY EXPLANATION: LTEA_HepaRG_CYP7A1: Life Technologies and Expression Analysis (LTEA) Assay for Cytochrome P450 7A1 (CYP7A1) using HepaRG (AID 2283496)
- REPORTED CONDITIONS: mRNA level, 48 h; actives raise or lower the signal
The source made the active and inactive calls. How the source made its calls: active means hit-call score of the fitted dose curve at least 0.9, where 1 is the maximum; inactive means score below 0.9.
MEASURED QUANTITY: AC50

CNC(=O)ON=C(C)SC :: inactive
CCCCSP(=O)(SCCCC)SCCCC :: 50 µM (active)
CCOC(=O)COc1cc(-c2nn(C)c(OC(F)F)c2Cl)c(F)cc1Cl :: inactive
C=C(C)[C@H]1Cc2c(ccc3c2O[C@@H]2COc4cc(OC)c(OC)cc4[C@@H]2C3=O)O1 :: 3.69 µM (active)
CN(C)NC(=O)CCC(=O)O :: inactive
CCOC(=O)CC(SP(=O)(OC)OC)C(=O)OCC (stereo not given) :: 50 µM (active)
CC[C@H](C)[C@H]1O[C@]2(C=C[C@@H]1C)C[C@@H]1C[C@@H](C/C=C(\C)[C@@H](O[C@H]3C[C@H](OC)[C@@H](O[C@H]4C[C@H](OC)[C@@H](NC)[C@H](C)O4)[C@H](C)O3)[C@@H](C)/C=C/C=C3\CO[C@@H]4[C@H](O)C(C)=C[C@@H](C(=O)O1)[C@]34O)O2 :: inactive
CCC(=NOC/C=C/Cl)C1=C(O)CC(C2CCOCC2)CC1=O (stereo not given) :: inactive
CNC(=O)ON=C(SC)C(=O)N(C)C :: inactive
FC(F)C(F)(F)OCC(Cn1cncn1)c1ccc(Cl)cc1Cl (stereo not given) :: 44.6 µM (active)
CCOP(=S)(OCC)SCCSCC :: inactive
COP(=O)(NC(C)=O)SC (stereo not given) :: inactive
CCOP(=S)(OCC)Oc1cc(C)nc(C(C)C)n1 :: inactive
O=c1ccc(=O)[nH][nH]1 :: inactive
CCOP(=O)(NC(C)C)Oc1ccc(SC)c(C)c1 (stereo not given) :: 3.62 µM (active)
CC(C)=CC1C(C(=O)OCN2C(=O)C3=C(CCCC3)C2=O)C1(C)C (stereo not given) :: inactive
CCCOc1nn(C(=O)NS(=O)(=O)c2ccccc2C(=O)OC)c(=O)n1C :: inactive
COP(=O)(OC)SCn1c(=O)oc2cc(Cl)cnc21 :: inactive
COc1ccc(C(=CC(=O)N2CCOCC2)c2ccc(Cl)cc2)cc1OC :: inactive
CCc1cccc(C)c1N(C(=O)CCl)C(C)COC (stereo not given) :: inactive
CON=C(C(=O)OC)c1ccccc1CON=C(C)c1cccc(C(F)(F)F)c1 :: inactive
S=C1NCCN1 :: inactive
CCNc1nc(Cl)nc(NC(C)(C)C#N)n1 :: inactive
CCC(CC)Nc1c([N+](=O)[O-])cc(C)c(C)c1[N+](=O)[O-] :: inactive
CSC1=N[C@@](C)(c2ccccc2)C(=O)N1Nc1ccccc1 :: 38 µM (active)
